TARGET_SYSTEM: Human immunodeficiency virus type 1 protease (Human immunodeficiency virus 1, UniProt Q72874)
pKd: −log10 of the molar value.
READOUT_TYPE: pKd

molecule="O=C(NC1c2ccccc2C[C@@H]1O)[C@H](O)[C@H](O)[C@@H](O)[C@@H](Oc1ccccc1)C(=O)NC1c2ccccc2C[C@@H]1O (stereo partly drawn)" observed_value=7.86
molecule=CC(C)[C@H](C)C(=O)NC(=O)[C@H](O)[C@@H](O)[C@H](O)[C@@H](Oc1ccccc1)C(=O)NC(=O)[C@@H](C)C(C)C observed_value=5.52
molecule=CC(C)[C@H](C)C(=O)NC(=O)[C@H](O)[C@H](O)[C@@H](O)[C@@H](Oc1ccc(-c2nccs2)cc1)C(=O)NC(=O)[C@@H](C)C(C)C observed_value=9.19
molecule=CC(C)[C@H](C)C(=O)NC(=O)[C@H](O)[C@H](O)[C@@H](O)[C@@H](Oc1ccc(Br)cc1)C(=O)NC(=O)[C@@H](C)C(C)C observed_value=7.68
molecule=CC(C)[C@H](C)C(=O)NC(=O)[C@H](O)[C@H](O)[C@@H](O)[C@@H](Oc1ccc(-c2cccc([N+](=O)[O-])c2)cc1)C(=O)NC(=O)[C@@H](C)C(C)C observed_value=7.74
molecule=CC(C)[C@H](C)C(=O)NC(=O)[C@H]([O-])[C@H](O)[C@@H](O)[C@@H](Oc1ccc(C2=CC=[S+]C2)cc1)C(=O)NC(=O)[C@@H](C)C(C)C observed_value=8.52
molecule="O=C(NC1c2ccccc2C[C@H]1O)[C@H](O)C[C@@H](O)[C@@H](Oc1ccccc1)C(=O)NC1c2ccccc2C[C@@H]1O (stereo partly drawn)" observed_value=7.45
molecule="CC(NO)c1cccc(CN2[C@H](COc3ccccc3)[C@H](O)[C@@H](O)[C@@H](COc3ccccc3)N(Cc3cccc(C(C)NO)c3)S2(=O)=O)c1 (stereo partly drawn)" observed_value=6.77
molecule="COC(=O)N[C@H](C(=O)N[C@@H](Cc1ccccc1)[C@@H](O)CN(Cc1ccc(-c2ccccn2)cc1)NC(=O)[C@@H](NC(=O)OC)C(C)(C)C)C(C)(C)C [ATAZANAVIR]" observed_value=9.40
molecule=C[C@@H](Cc1ccc(O)cc1)C(=O)NC(=O)[C@H](O)[C@H](O)[C@@H](O)[C@@H](Oc1ccccc1)C(=O)NC(=O)[C@@H](C)Cc1ccc(O)cc1 observed_value=3.51
molecule=CC(C)[C@H](C)C(=O)NC(=O)[C@H](O)[C@H](O)[C@@H](O)[C@@H](Oc1ccc(-c2ccccn2)cc1)C(=O)NC(=O)[C@@H](C)C(C)C observed_value=8.93
molecule="Cc1cc(NS(=O)(=O)c2ccc(N)cc2)no1 [SULFAMETHOXAZOLE]" observed_value=6.24
molecule=CC(C)[C@H](C)C(=O)NC(=O)[C@H](O)[C@H](O)[C@@H](O)[C@@H](Oc1ccc(C2=C(O)C(=O)CCC2)cc1)C(=O)NC(=O)[C@@H](C)C(C)C observed_value=7.76

---

Tested on: MT4
ASSAY_COMMENT: Effective dose of compound required to inhibit replication of human immunodeficiency virus type 1 in MT-4 cells
Type: functional
RUN_CONDITIONS: read-out: ED50 (the source's name)
pEC50: −log10 of the molar value.
Documented pEC50 across a set of compounds
READOUT_TYPE: pEC50

compound=CC(C)[C@H](C)C(=O)NC(=O)[C@H](O)[C@H](O)[C@@H](O)[C@@H](Oc1ccc(Br)cc1)C(=O)NC(=O)[C@@H](C)C(C)C target_system=MT4 observed_value=6.19
compound=CC(C)[C@H](C)C(=O)NC(=O)[C@H](O)[C@H](O)[C@@H](O)[C@@H](Oc1ccc(CCc2ccccc2)cc1)C(=O)NC(=O)[C@@H](C)C(C)C target_system=MT4 observed_value=5.69
compound="O=C(NC1c2ccccc2C[C@@H]1O)[C@H](O)[C@H](O)[C@@H](O)[C@@H](Oc1ccccc1)C(=O)NC1c2ccccc2C[C@@H]1O (stereo partly drawn)" target_system=MT4 observed_value=7.00
